SYSTEM NAME: JH2 domain of human Tyk2 (Homo sapiens (Human))
PROCEDURE DETAILS: JH2 Biochemical Assay (TR-FRET probe displacement)
Format: binding
APPLIED CONDITIONS: TR-FRET probe displacement, JH2 domain of human Tyk2
PROPERTY MEASURED: IC50

COCCn1cnc(-c2cnc(NC(C)=O)cc2Nc2cc(C)nc(C(C)(F)F)n2)n1 :: ≤ 10 nM
CC(=O)Nc1cc(Nc2cc(C)nc(C(C)(F)F)n2)c(CCCN(C)C)cn1 :: 100 to 1000 nM
CC(=O)Nc1cc(Nc2cc(C)nc(C(C)(F)F)n2)c(-c2cccnn2)cn1 :: ≤ 10 nM

Record COCCN(C)c1cncc(-c2cnc(NC(C)=O)cc2Nc2ccnc(C(C)(F)F)n2)n1 . Reported IC50: ≤ 10 nM

---

SYSTEM NAME: JH2 domain of human Tyk2 (Homo sapiens (Human), UniProt P29597)
Sequence (P29597 575-876): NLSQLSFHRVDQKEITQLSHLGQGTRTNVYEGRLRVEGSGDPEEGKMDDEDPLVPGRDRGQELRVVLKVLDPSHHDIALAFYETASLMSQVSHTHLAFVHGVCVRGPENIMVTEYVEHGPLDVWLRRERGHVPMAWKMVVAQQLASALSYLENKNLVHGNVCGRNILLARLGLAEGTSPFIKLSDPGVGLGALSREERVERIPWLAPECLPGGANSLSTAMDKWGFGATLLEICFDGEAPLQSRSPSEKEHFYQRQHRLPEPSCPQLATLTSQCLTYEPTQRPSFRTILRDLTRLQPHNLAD
PROCEDURE DETAILS: JH2 Biochemical Assay (TR-FRET probe displacement)
Type: binding
APPLIED CONDITIONS: JH2 domain of human Tyk2, TR-FRET probe displacement
pIC50: −log10 of the molar value.
PROPERTY MEASURED: pIC50

COc1cc(C)nc(-c2cnc(NC(C)=O)cc2Nc2cc(C)nc(C(C)(F)F)n2)n1 :: 7.00 to 8.00
CC(=O)Nc1cc(Nc2cc(C)nc(C(C)(F)F)n2)c(-c2ccc(CN(C)C)cn2)cn1 :: ≥ 8.00
COc1cnc(NC(C)=O)cc1Nc1cc(-c2cnn(CCN(C)C)c2)nc(C(C)(F)F)n1 :: ≥ 8.00

Consider CC(=O)Nc1cc(Nc2cc(C)nc(C(C)(F)F)n2)c(O)cn1 . Its measured pIC50 is 7.00 to 8.00

---

Kindly supply the reported pIC50 values for the records listed here.
SYSTEM NAME: JH2 domain of human Tyk2 (Homo sapiens (Human), UniProt P29597)
PROCEDURE DETAILS: JH2 Biochemical Assay (TR-FRET probe displacement)
Type: binding
APPLIED CONDITIONS: JH2 domain of human Tyk2, TR-FRET probe displacement
pIC50: −log10 of the molar value.

Each compound below has a recorded value; state its pIC50.
1. COc1cnc(NC(C)=O)cc1Nc1cc(-c2ccc3nc(C)cn3n2)nc(C(C)(F)F)n1 [Example 399]
2. COc1nn(C)cc1COc1cnc(NC(C)=O)cc1Nc1cc(C)nc(C(C)(F)F)n1 [Example 512]
3. CC(=O)Nc1cc(Nc2ccnc(C(C)(F)F)n2)c(-c2cnn(C(C)C)n2)cn1 [Example 708]
4. CC(=O)Nc1cc(Nc2cc(C)nc(C3CCOC3)n2)c(-c2ccn(C)n2)cn1 (stereo not drawn) [Example 555]
5. COc1ccc(-c2cnc(NC(C)=O)cc2Nc2cc(C)nc(C(C)(F)F)n2)nc1OC [Example 637]

stdout:
1: ≥ 8.00; 2: 6.00 to 7.00; 3: ≥ 8.00; 4: ≥ 8.00; 5: ≥ 8.00

Required: pIC50, one value per compound below.
1. CCOc1cnc(NC(C)=O)cc1Nc1cc(OC2CCC2)nc(C(C)(F)F)n1 [Example 462]
2. COc1cnc(NC(C)=O)cc1Nc1cc(-c2cn[nH]c2F)nc(C(C)(F)F)n1 [Example 385]
3. COc1cnc(NC(C)=O)cc1Nc1cc(-c2cncc(C)c2)nc(C(C)(F)F)n1 [Example 389]
4. CC(=O)Nc1cc(Nc2cc(C)nc(C(C)(F)F)n2)c(OC[C@]23C[C@](C)(CO2)C3)cn1 [Example 514]
5. COCCOc1ccc(-c2cnc(NC(C)=O)cc2Nc2ccnc(C(C)(F)F)n2)nc1 [Example 523]
6. [2H]C([2H])([2H])Oc1cnc(NC(C)=O)cc1Nc1cc(OC2CC2)nc(C(C)(F)F)n1 [Example 415]

stdout:
≥ 8.00
7.00 to 8.00
≥ 8.00
≥ 8.00
≥ 8.00
≥ 8.00

---

SYSTEM NAME: Tyk2 (Homo sapiens (Human))
Sequence (P29597 whole entry): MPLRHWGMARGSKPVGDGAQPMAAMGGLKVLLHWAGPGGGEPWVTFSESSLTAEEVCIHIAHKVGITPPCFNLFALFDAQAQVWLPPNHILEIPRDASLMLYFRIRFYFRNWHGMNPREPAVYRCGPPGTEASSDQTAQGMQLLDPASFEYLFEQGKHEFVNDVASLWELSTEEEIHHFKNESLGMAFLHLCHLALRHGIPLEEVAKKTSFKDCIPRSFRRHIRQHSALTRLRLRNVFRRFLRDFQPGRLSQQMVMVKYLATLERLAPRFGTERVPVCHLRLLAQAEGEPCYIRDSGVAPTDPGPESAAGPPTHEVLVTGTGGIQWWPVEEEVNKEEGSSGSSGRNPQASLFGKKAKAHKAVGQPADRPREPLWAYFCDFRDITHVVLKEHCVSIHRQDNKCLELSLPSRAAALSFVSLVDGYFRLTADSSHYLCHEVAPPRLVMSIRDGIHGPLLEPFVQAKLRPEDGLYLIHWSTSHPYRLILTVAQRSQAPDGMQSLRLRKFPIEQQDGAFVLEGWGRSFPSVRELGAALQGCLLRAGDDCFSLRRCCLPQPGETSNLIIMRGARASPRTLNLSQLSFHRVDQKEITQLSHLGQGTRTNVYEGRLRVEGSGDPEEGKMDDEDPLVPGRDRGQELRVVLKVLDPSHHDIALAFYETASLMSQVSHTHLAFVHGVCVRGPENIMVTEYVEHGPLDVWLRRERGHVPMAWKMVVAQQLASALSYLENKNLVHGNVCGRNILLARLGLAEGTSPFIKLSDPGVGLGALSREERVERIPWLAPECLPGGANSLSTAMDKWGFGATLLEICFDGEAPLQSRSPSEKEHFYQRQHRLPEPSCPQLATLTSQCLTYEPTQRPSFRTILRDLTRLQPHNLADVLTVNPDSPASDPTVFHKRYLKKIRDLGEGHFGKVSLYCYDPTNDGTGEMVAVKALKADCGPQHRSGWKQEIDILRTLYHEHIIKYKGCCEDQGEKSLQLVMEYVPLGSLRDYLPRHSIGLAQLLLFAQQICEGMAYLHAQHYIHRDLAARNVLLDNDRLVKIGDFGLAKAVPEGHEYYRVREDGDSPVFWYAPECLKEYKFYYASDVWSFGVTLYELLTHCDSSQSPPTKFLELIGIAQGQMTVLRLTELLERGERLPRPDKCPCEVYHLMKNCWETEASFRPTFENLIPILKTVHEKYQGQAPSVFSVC
PROCEDURE DETAILS: pSTAT4 Cell Assay (MSD, NK92 cells)
Assay type: cell-based
APPLIED CONDITIONS: MSD
pIC50: −log10 of the molar value.
PROPERTY MEASURED: pIC50

Study these solved cases before continuing.
CC(=O)Nc1cc(Nc2cc(C)nc(C(C)(F)F)n2)c(OCc2ccccc2)cn1 [Example 30] :: ≥ 8.00
CC(=O)Nc1cc(Nc2cc(C)nc(C(C)(F)F)n2)c(-c2cnc(C(C)N(C)C)cn2)cn1 (centres unmarked) [Example 741] :: ≥ 8.00
COCCn1cnc(-c2cnc(NC(C)=O)cc2Nc2cc(C)nc(C(C)(F)F)n2)cc1=O [Example 250] :: 6.00 to 7.00
CC(=O)Nc1cc(Nc2cc(C)nc(C(C)(F)F)n2)c(-c2cnc(COC(F)F)cn2)cn1 [Example 662] :: 7.00 to 8.00
CCOc1cnc(NC(C)=O)cc1Nc1cc(CC)nc(C(C)(F)F)n1 [Example 12] :: 7.00 to 8.00

Could you report pIC50 for every entry in the following list?
1. COc1cnc(NC(C)=O)cc1Nc1cc(O[C@H]2C[C@@H](F)C2)nc(C(C)(F)F)n1 [Example 461]
2. COCCOc1cnc(NC(C)=O)cc1Nc1cc(C)cc(C(C)(F)F)n1 [Example 63]
3. CC(=O)Nc1cc(Nc2cc(C)nc(C(C)(F)F)n2)c(-c2ncc(C#N)cn2)cn1 [Example 655]
4. COc1nccc(-c2cnc(NC(C)=O)cc2Nc2cccc(C(C)(F)F)n2)n1 [Example 177]

stdout:
["7.00 to 8.00", "≥ 8.00", "7.00 to 8.00", "≥ 8.00"]

Would you mind giving pIC50 for every molecule in the list below?
1. COCc1ccc(-c2cnc(NC(C)=O)cc2Nc2cc(COC)nc(C3CCOC3)n2)nc1 (centres unmarked) [Example 570]
2. CC(=O)Nc1cc(Nc2cc(C(C)C)nc(C(C)(F)F)n2)c(OCc2ccccn2)cn1 [Example 365]
3. COCCOc1cnc(NC(C)=O)cc1Nc1cncc(C(C)(C)F)n1 [Example 439]
4. CCOc1cnc(NC(C)=O)cc1Nc1cc(OC2CC(F)(F)C2)nc(C(C)(F)F)n1 [Example 459]
5. CCc1nnc(-c2cnc(NC(C)=O)cc2Nc2ccnc(C(C)(F)F)n2)s1 [Example 714]
6. CC(=O)Nc1cc(Nc2cc(C)nc(C(C)(F)F)n2)c(OCC2(C)CCOC2)cn1 (centres unmarked) [Example 431]

stdout:
1: 7.00 to 8.00; 2: ≥ 8.00; 3: 7.00 to 8.00; 4: 7.00 to 8.00; 5: ≥ 8.00; 6: 6.00 to 7.00

I'm hoping you can list pIC50 for every molecule here, please.
1. CC(=O)Nc1cc(Nc2cccc(C(C)(F)F)n2)c(-c2ncc(F)cn2)cn1 [Example 186]
2. CC(=O)Nc1cc(Nc2ccnc(C(C)(F)F)n2)ccn1 [Example 724]

stdout:
1: 7.00 to 8.00; 2: ≤ 6.00

---

Could you please report measured IC50 for the items listed next?
SYSTEM NAME: JH2 domain of human Tyk2 (Homo sapiens (Human), UniProt P29597)
PROCEDURE DETAILS: JH2 Biochemical Assay (TR-FRET probe displacement)
Format: binding
APPLIED CONDITIONS: TR-FRET probe displacement, JH2 domain of human Tyk2
Where a name gives a salt, the structure may show the parent alone.

# count of solved cases: 2
CCOc1cnc(NC(C)=O)cc1Nc1cc(-c2ccc(OC)nc2)nc(C(C)(F)F)n1 :: ≤ 10 nM
CC(=O)Nc1cc(Nc2cc(C)nc(C(C)(F)F)n2)c(OCC2CC2)cn1 :: ≤ 10 nM

# per-item lookup of IC50; items listed below
1. CC(=O)Nc1cc(Nc2cc(OC3CC3)nc(C(C)(F)F)n2)c(Oc2cnn(C)c2)cn1
2. CC(=O)Nc1cc(Nc2cc(C)nc(C(C)(F)F)n2)c(OCC2(C#N)CC2)cn1
3. CC(=O)Nc1cc(Nc2cc(C)nc(C(C)(F)F)n2)c(C)cn1
4. CC(=O)Nc1cc(Nc2cc(C)nc(C(C)(F)F)n2)c(OCc2ccc(F)cn2)cn1
5. CCOc1cnc(NC(C)=O)cc1Nc1cc(-c2ccc(CC)nc2)nc(C(C)(F)F)n1
6. CCOc1cnc(NC(C)=O)cc1Nc1cc(-c2cnn(C(C)C)c2)nc(C(C)(F)F)n1
7. CCc1cc(Nc2cc(NC(C)=O)ncc2-c2ccc(OCCOC)nn2)nc(C(C)(F)F)n1 [Example 269, trifluoroacetate]
8. CCc1cc(Nc2cc(NC(C)=O)ncc2-c2cn(CCOC)nn2)nc(C(C)(F)F)n1

stdout:
1: 10 to 100 nM; 2: ≤ 10 nM; 3: 10 to 100 nM; 4: ≤ 10 nM; 5: ≤ 10 nM; 6: ≤ 10 nM; 7: ≤ 10 nM; 8: ≤ 10 nM

For every item in the list below, what is its measured IC50?
1. CC(=O)Nc1cc(Nc2cc(C)nc(C(C)(F)F)n2)c(-c2cc(C(C)(C)C#N)ncn2)cn1
2. COCCOc1cnc(NC(C)=O)cc1Nc1cc(-c2cnn(C(C)C)c2)nc(C(C)(F)F)n1
3. CC(=O)Nc1cc(Nc2cc(C)nc(C(C)(F)F)n2)c(-c2cc(CN(C)C)n(C)n2)cn1
4. COc1cc(Nc2cc(NC(C)=O)ncc2-c2ncc(F)cn2)nc(C(C)(F)F)c1
5. COCCOc1cnc(NC(C)=O)cc1Nc1cccc(C(C)(F)F)n1
6. CO[C@H]1C[C@H](Oc2cnc(NC(C)=O)cc2Nc2cc(OC3CC3)nc(C(C)(F)F)n2)C1
7. COc1nc(C)cc(-c2cnc(NC(C)=O)cc2Nc2ccnc(C(C)(F)F)n2)n1

stdout:
100 to 1000 nM
≤ 10 nM
≤ 10 nM
≤ 10 nM
≤ 10 nM
≤ 10 nM
≤ 10 nM

From: patent US20260028365A1
